target: α-glucosidase; test: α-glucosidase inhibition assay (PNPG substrate, OD 405 nm); format: biochemical, Saccharomyces cerevisiae; conditions: more than eight concentrations; GraphPad Prism 7.0
Parameter: pIC50
Give only the number. pIC50 is defined as minus log10 of concentration in molar units.

>>> df
                              molecule  parameter  value_observed
0  CCCCCCCCCCCCCC1=C(O)C(=O)C=C(O)C1=O      pIC50            5.64

Inquiry: I have this molecule here, CCCCCCCCCCCCCCCC1=C(O)C(=O)C=C(O)C1=O [Compound 10d] , and I need its recorded pIC50.
Reply text: 5.74

Inquiry: I have this molecule here, O=C1C=C(O)C(=O)C(Cc2ccc(-c3ccccc3)cc2)=C1O [Compound 17d] , and I need its recorded pIC50.
Reply text: 4.95

Inquiry: I have this molecule here, O=C1C=C(O)C(=O)C(CCC2CCCCC2)=C1O [Compound 14d] , and I need its recorded pIC50.
Reply text: 4.34

Inquiry: I have this molecule here, CCCCCCCC1=C(O)C(=O)C=C(O)C1=O , and I need its recorded pIC50.
Reply text: 3.90
